Where do the numbers come from? From patent US20180112005A1.

# target-desc: T1, mFLAG-EGF34+NRR-His6, the murine Notch1 NRR immunogen (mouse Notch1 V1307-Q1723) (mouse, UniProt Q01705 1307-1723)
# T1 construct: N-terminal FLAG tag and C-terminal His tag, expressed in 293-F cells; also called mNotch1 NRR; mouse Notch1 NRR
# T1 sequence (Q01705 other isoform, or with tags, fused parts or gaps): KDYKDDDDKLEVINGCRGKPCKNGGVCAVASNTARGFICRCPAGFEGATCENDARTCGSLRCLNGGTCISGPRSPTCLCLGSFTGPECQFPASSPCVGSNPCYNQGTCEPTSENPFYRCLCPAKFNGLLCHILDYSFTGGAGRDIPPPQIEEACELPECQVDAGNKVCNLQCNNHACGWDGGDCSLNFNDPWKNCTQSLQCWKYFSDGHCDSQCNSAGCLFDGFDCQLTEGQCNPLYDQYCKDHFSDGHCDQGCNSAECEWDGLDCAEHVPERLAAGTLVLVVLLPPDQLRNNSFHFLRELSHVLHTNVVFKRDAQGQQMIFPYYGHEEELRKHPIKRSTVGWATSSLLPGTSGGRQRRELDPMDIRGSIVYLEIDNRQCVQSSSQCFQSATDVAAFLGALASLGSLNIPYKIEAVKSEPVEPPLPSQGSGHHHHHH
# experimental-protocol: SPR (BIAcore-3000), IgG captured on rabbit anti-human IgG, NRR1-ECD protein injected 3.9-500 nM, 25 C, 1:1 Langmuir
value-type: pKd
Give bare numbers, as −log10 of the molar value.

Query: Name the recorded pKd for Antibody A-3 (antibody, V domains shown) VH: EVQLVESGGGLVQPGGSLRLSCAASGFTFSSYWIHWVRQAPGKGLEWVARINPANGSTRYADSVKGRFTISADTSKNTAYLQMNSLRAEDTAVYYCARGSGFRWVMDYWGQGTLVTVSS VL: DIQMTQSPSSLSASVGDRVTITCRASQDVSTAVAWYQQKPGKAPKLLIYSASFLYSGVPSRFSGSGSGTDFTLTISSLQPEDFATYYCQQSFSTPATFGQGTKVEIKR .
Response: 7.89
